# System: microfilariae of Dirofilaria immitis
# measurement_protocol: Dirofilaria immitis, Microfilaria (DiMF) Assay
# Format: cell-based
# cond: read-out: D. immitis activity level (IC50 or MED)
pIC50: −log10 of the molar value.
reported_metric: pIC50

Consider the reported pIC50 for these compounds:
CC(C)Oc1ccc(-c2nsc(Nc3nccnc3N(C)C)n2)nc1
6.30 to 6.70
Cc1ccnc(-c2noc(Nc3ncccc3F)n2)c1
5.30 to 6.30
CC(=O)N(C)c1cccnc1Nc1nc(-c2cc(C(C)C)c(C)cn2)ns1
6.30 to 6.70

Recorded pIC50 for `CC(=O)N(c1cccnc1Nc1nc(-c2ccc(OC(C)C)cn2)ns1)C(C)C` with microfilariae of Dirofilaria immitis, please?
5.30 to 6.30

* * *

# System: microfilariae of Dirofilaria immitis
# measurement_protocol: Dirofilaria immitis, Microfilaria (DiMF) Assay
# Format: cell-based
# cond: read-out: D. immitis activity level (IC50 or MED)
Recorded measurements of IC50, one per entry

Example results:
CC(=O)N(C)c1cccnc1Nc1nc(-c2cc3c(cn2)N(C(C)C)CC3)ns1
< 200 nM
CC(=O)N(C)c1cccnc1Nc1nc(-c2cc3c(cn2)OC(C)(C)C3)ns1
500 to 5000 nM
CC(C)Oc1cnc(-c2nsc(Nc3ncccc3C(F)(F)F)n2)cc1C(=O)N(C)C
500 to 5000 nM

Now turn to the next compound.
Enter reported IC50 observed with microfilariae of Dirofilaria immitis for `CC(C)Oc1cnc(-c2nsc(Nc3ncccc3C(=O)N3CCCC3)n2)cc1C(F)(F)F`
500 to 5000 nM

* * *

# System: microfilariae of Dirofilaria immitis
# measurement_protocol: Dirofilaria immitis, Microfilaria (DiMF) Assay
# Type: cell-based
# cond: read-out: D. immitis activity level (IC50 or MED)
# Procedure: Heartworm Screen Dirofilaria immitis (D. immitis) Dirofilaria immitis, Microfilaria (DiMF) Assay. Compounds were dissolved and serially diluted in DMSO. Aliquots were spotted to the empty wells of assay plates. Media and microfilariae of Dirofilaria immitis were added to each well to dilute the test compounds to the desired concentrations. […] Microfilariae in each well were assessed subjectively for survival or paralysis, and results were reported as Minimum Effective Dose (MED). […]
Reported IC50 by item:

CC(C)Oc1ccc(-c2nsc(Nc3ncccc3C(=O)N(C)C3CC3)n2)nc1
0.2 to 0.5 µM
CC(C)Oc1ccc(-c2nsc(Nc3ncccc3N(C)C(=O)C3CCC3)n2)nc1
0.5 to 5 µM
Cc1cccnc1Nc1nc(-c2cc(C(F)(F)F)c(OCC3CC3)cn2)ns1
0.2 to 0.5 µM

Quick one: IC50 for `COc1ccc(-c2nsc(Nc3ccc(C(F)(F)F)cn3)n2)nc1` ?
0.5 to 5 µM

I have this compound here, `COc1ccc(Nc2nc(-c3cc(OC4CCCCC4)ccn3)ns2)nc1` , and I need its recorded IC50.
< 0.2 µM

* * *

# pIC50 annotations
# System: microfilariae of Dirofilaria immitis
# measurement_protocol: Dirofilaria immitis, Microfilaria (DiMF) Assay
# Format: cell-based
# cond: read-out: D. immitis activity level (IC50 or MED)
pIC50: −log10 of the molar value.

Need pIC50 of COC(=O)c1cccnc1Nc1nc(-c2ccc(OC(C)C)cn2)ns1 [Compound 276] , thanks.
5.30 to 6.30

I would be grateful if you could share the reported pIC50 for CC(C)Oc1ccc(-c2nsc(Nc3ncc(C(=O)NC4CC(F)(F)C4)cc3C(C)C)n2)nc1 [Compound 195] .
5.30 to 6.30

Looking for the measured pIC50 of Cc1cccnc1Nc1nc(-c2ncc(OC3CC3)cc2C(F)(F)F)ns1 [Compound 93] , can you help?
5.30 to 6.30

// lookup pIC50 for Cc1cccnc1Nc1nc(-c2ccc(O[C@@H]3CCN(C4CC4)C[C@H]3F)cn2)ns1 [Compound 91]
5.30 to 6.30

Name the reported pIC50 value associated with the molecule CC(C)c1cccnc1Nc1nc(-c2ccc(OC3CCN(C4CC4)CC3(F)F)cn2)ns1 (centres unmarked) [Compound 87]
6.30 to 6.70

Quick check: pIC50 of CC(C)Oc1cnc(-c2nsc(Nc3ncccc3N(C)C(=O)C3CC3)n2)cc1C(F)(F)F [Compound 186] ?
6.30 to 6.70

Reported pIC50, molecule CC(C)Oc1cnc(-c2nsc(Nc3ncccc3C(C)C)n2)cc1C(F)(F)F [Compound 168] : ____
6.30 to 6.70

Form field: reported pIC50 of CC(C)Oc1cnc(-c2nsc(Nc3ncccc3N(C)C)n2)cc1C(F)(F)F [Compound 156]
6.30 to 6.70

meta.source: patent US11505548B2
